- Tested on: BT-549 breast
- Test method notes: NCI-60 one-dose screen, 48 h
- Test context: 10 µM unless noted
This is part of a sample that, as a whole, favours compounds with a hit. Of some 83,000 tested, about 20% had one in any assay. Activity calls are given as the source filed them. How the source made its calls: active means growth percent below 10; inactive means the rest.
One label from this list, please: true for active, false for inactive

What call does the record list for Cc1cc(Cl)ccc1Nc1nc(C(F)(F)F)ccc1C(=O)N/N=C/c1ccc(N(C)C)cc1 ?
false

// query: COc1ccccc1CNCCCN1C(=O)c2ccc3c4c(ccc(c24)C1=O)C(=O)N(CCCNCCCCN)C3=O
true

Subsequent entry: COc1cc(/C=N/n2c(CN3CCOCC3)nc3ccccc3c2=O)cc(OC)c1OC
false

Now consider COC(=O)[C@]12CC[C@@H](C)[C@H](C)[C@@H]1C1=CC[C@@H]3[C@@]4(C)C(C=O)=C[C@@](C)(COC(=O)/C=C/c5ccccc5)[C@@H]4[C@H](O)C[C@@]3(C)[C@]1(C)CC2 and answer again.
true

Entry O=C1NC(=Nc2ccc(Cl)cc2)S/C1=C\c1cn(-c2ccccc2)nc1-c1ccccc1 please
false

Item: COc1cc(C2NC(=O)c3ccccc3N2)ccc1OCCCCCOc1c(OC)cc(C2=NOC(c3cc(OC)c(OC)c(OC)c3)C2)cc1OC (stereo not given)
true
